assay: NCI Yeast Anticancer Drug Screen. Data for the rad50 strain (AID 155);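 further: 0% = growth of vehicle-only cultures of the same strain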; settings: S. cerevisiae rad50 strain growth inhibition; at 50.0 µM
About 79,000 compounds went through this panel and 15% of them were active in at least one assay; those are over-represented in the sample as a whole. Active and inactive are the calls of the source. No stated cut-off is given here; in the data, active means growth inhibition above about 70%; inactive means the rest.
Please state which outcome applies, choosing from label 1 (active), label 0 (inactive)

Reference set, count: 6
>  <Compound>
CCCCNC(=O)OCc1c(COC(=O)NCCCC)c(-c2ccc(Cl)c(Cl)c2)n2c1CCC2

>  <Label>
label 0

$$$$
>  <Compound>
CCCC(=O)N(C(=O)CCC)C1=C(Cl)C(=O)c2ccccc2C1=O

>  <Label>
label 0

$$$$
>  <Compound>
C[N+](C)(CCO)Cc1ccccc1

>  <Label>
label 0

$$$$
>  <Compound>
COc1ccc(/C=C2/C(=O)ON=C2C)cc1OC

>  <Label>
label 1

$$$$
>  <Compound>
O=C1NC(CSSCC2NC(=O)N(c3ccccc3)C2=O)C(=O)N1c1ccccc1 (stereo unspecified)

>  <Label>
label 1

$$$$
>  <Compound>
Fc1ccc(NC(=S)SCc2ccccc2)cc1F

>  <Label>
label 1

$$$$

Please find the next compound below.
# input Test call, this compound: S=C(Nc1ccc(N=Nc2ccccc2)cc1)SCc1ccccc1
# output label 0

====

experiment: NCI Yeast Anticancer Drug Screen. Data for the cln2 rad14 strain (AID 165);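 further: 0% = growth equal to vehicle treated cultures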; conditions: S. cerevisiae cln2 rad14 strain, at 5.0 µM (retest, dose inferred, filed as 0.5)
This is part of a sample that, as a whole, favours compounds with a hit. Of some 79,000 tested, about 15% had one in any assay. Active and inactive are the calls of the source. Rule as the data show it: active = growth inhibition above about 70%; inactive = the rest.
Mark one answer only. Choices: 1 (yes) (active), 0 (no) (inactive)

Consider the worked cases shown below.
>  <Compound>
COC(=O)C1C2CC3c4[nH]c5cc(OC)c(Br)cc5c4CCN3CC2CC(OC(=O)c2cc(OC)c(OC)c(OC)c2)C1OC (stereo not drawn)

>  <Label>
0 (no)

$$$$
>  <Compound>
CCNC1(C2c3ccccc3-c3ccccc32)c2ccccc2-c2ccccc21

>  <Label>
0 (no)

$$$$
>  <Compound>
COc1cc(C(c2ccccc2)c2ccccc2)c2ccccc2c1O

>  <Label>
0 (no)

$$$$
>  <Compound>
C(=C1/CNC/C(=C/c2ccccc2)C1)/c1ccccc1

>  <Label>
0 (no)

$$$$
>  <Compound>
O=C(O)c1ccccc1NC(c1ccccc1)c1ccc2cccnc2c1O (stereo not drawn)

>  <Label>
0 (no)

$$$$

// next entry
# input Per the assay record, what outcome was assigned to c1ccc(B2OC(c3ccccc3)C(c3ccccc3)O2)cc1 (stereo not drawn) ?
# output 0 (no)

====

assay: NCI Yeast Anticancer Drug Screen. Data for the rad50 strain (AID 155);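 further: 0% = growth of vehicle-only cultures of the same strain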; conditions: S. cerevisiae rad50 strain growth inhibition; at 50.0 µM (retest, dose inferred, filed as 5.0)
Compounds without any hit were thinned out: in the full panel of roughly 79,000, 15% have a hit. Activity calls are given as the source filed them. Rule as the data show it: active = growth inhibition above about 70%; inactive = the rest.
Classes to choose from: True for active, False for inactive

Previously resolved entries follow.
>  <Compound>
O=C(CC(O)(C(F)(F)F)C(F)(F)F)C(c1ccccc1)C(O)(C(F)(F)F)C(F)(F)F (configuration not stated)

>  <Label>
True

$$$$
>  <Compound>
O=[N+]([O-])c1cccc2c1[nH]c1c(-c3ccccc3)nccc12

>  <Label>
True

$$$$
>  <Compound>
Cc1cnc(Sc2ncccc2[N+](=O)[O-])[nH]c1=O

>  <Label>
False

$$$$

# input GET /call?item= S=C1NC2=C(CSC/C2=C\c2cccc(Br)c2)C(c2cccc(Br)c2)N1 (configuration not stated) returns the recorded outcome of this test.
# output True

# input Query: recorded result category for COc1ccc(/C=N/n2c(C)nc3c(sc(=S)n3-c3ccccc3)c2=O)cc1 in this test
# output False

# input Write down the call the test reported for this compound. Item: CCCCCCCCCCCC[N+]1(C)CCCC1c1cccnc1 (configuration not stated)
# output True

# input I would be grateful if you could indicate the recorded call for CC[O-].CC[O-].[O-]c1ccccc1C=Nc1ccccc1.[O-]c1ccccc1C=Nc1ccccc1.[Ti+4] .
# output False

# input Identify the outcome logged in this assay for the compound shown: Nc1nnc2nc(CC(=O)c3ccccc3)/c(=C/C(=O)c3ccccc3)n12
# output False

# input For CC1(C)c2ccccc2Cc2cc3ccccc3nc21 , what call appears in the results of this test?
# output True
